- Tested on: Influenza B virus
- method.description: Antiviral activity against Influenza B virus (B/Taiwan/2/62) infected in MDCK cells assessed as inhibition of virus-induced cytopathogenicity at 1 hr post-infection measured after 3 days by fluorescein-diacetate based fluorimetric analysis
- Format: functional, organism-based
Each record's EC50 is compared with lower bin = under 10 µM, middle bin = from 10 µM up to 30 µM, upper bin = 30 µM and over to give its class.

                                    compound  class_label
 0  Cc1cc2c(cc1C)C(=O)C1(OC(=O)c3ccccc31)O2 (stereo not given)    lower bin
 1  CCc1ccc2c(c1)OC1(OC(=O)c3ccccc31)C2=O (stereo not given)   middle bin
 2  O=C1OC2(Oc3ccc(Cl)cc3C2=O)c2ccccc21 (stereo not given)   middle bin
 3                        NC(=O)c1nc(F)cnc1O    lower bin
 4  CCCc1ccc2c(c1)C(=O)C1(OC(=O)c3ccccc31)O2 (stereo not given)   middle bin
 5  Cc1ccc2c(c1)OC1(OC(=O)c3ccccc31)C2=O (stereo not given)    upper bin
 6  O=C1OC2(Oc3ccc(-c4ccccc4)cc3C2=O)c2ccccc21 (stereo not given)   middle bin
 7  Cc1cc2c(c(C)c1C)C(=O)C1(OC(=O)c3ccccc31)O2 (stereo not given)   middle bin
 8  O=C1OC2(Oc3cc4c(cc3C2=O)CCC4)c2ccccc21 (stereo not given)    lower bin
 9  Cc1ccc2c(c1)C(=O)C1(OC(=O)c3ccccc31)O2 (stereo not given)   middle bin
10  Cc1cc(C)c2c(c1)OC1(OC(=O)c3ccccc31)C2=O (stereo not given)    upper bin
11  Cc1ccc(C)c2c1OC1(OC(=O)c3ccccc31)C2=O (stereo not given)    upper bin
12  O=C1OC2(Oc3c(cccc3-c3ccccc3)C2=O)c2ccccc21 (stereo not given)    lower bin
13                     NC12CC3CC(CC(C3)C1)C2    upper bin
14  Cc1cccc2c1OC1(OC(=O)c3ccccc31)C2=O (stereo not given)    upper bin
15  COc1cccc2c1OC1(OC(=O)c3ccccc31)C2=O (stereo not given)    upper bin
16  Cc1ccc2c(c1C)OC1(OC(=O)c3ccccc31)C2=O (stereo not given)   middle bin
17  CCc1ccc2c(c1)C(=O)C1(OC(=O)c3ccccc31)O2 (stereo not given)    lower bin
18  O=C1OC2(Oc3c(Cl)cccc3C2=O)c2ccccc21 (stereo not given)    upper bin
19  O=C1OC2(Oc3cc4ccccc4cc3C2=O)c2ccccc21 (stereo not given)    upper bin

====

# Lookup of reported selectivity ratio keyed by entry
- method.description: Selectivity ratio of CC50 for MDCK cells to EC50 for Influenza B virus (B/Panama/45/1990)
- Format: ADME, cell-based
- assay.setup: dog, read-out: Ratio CC50/EC50
metric.name: selectivity ratio

>>> print(df.to_string())
                                   compound        metric_name  observed_result
0  Cc1cc2c(cc1C)C(=O)C1(OC(=O)c3ccccc31)O2 (configuration not stated)  selectivity ratio             > 15
1  O=C1OC2(Oc3cc(-c4ccccc4)ccc3C2=O)c2ccccc21 (configuration not stated)  selectivity ratio              < 5
2  O=C1OC2(Oc3ccc(-c4ccccc4)cc3C2=O)c2ccccc21 (configuration not stated)  selectivity ratio              < 5
3  O=C1OC2(Oc3c(cccc3-c3ccccc3)C2=O)c2ccccc21 (configuration not stated)  selectivity ratio              < 5
4  O=C1OC2(Oc3ccccc3C2=O)c2ccccc21 (configuration not stated)  selectivity ratio               20
5  O=C1OC2(Oc3cc(F)ccc3C2=O)c2ccccc21 (configuration not stated)  selectivity ratio             > 15
6  COc1cc2c(cc1OC)C1(OC2=O)Oc2cc(C(C)C)ccc2C1=O (configuration not stated)  selectivity ratio             > 15

====

- method.description: Cytotoxicity against african green monkey Vero cells by MTT assay
- Format: cell-based
- assay.setup: chlorocebus sabaeus
metric.name: CC50

                                   compound  metric_name  observed_result
0  Cc1cc2c(cc1C)C(=O)C1(OC(=O)c3ccccc31)O2 (configuration not stated)         CC50           312 µM
1              Nc1nc2c(ncn2COCCO)c(=O)[nH]1         CC50          > 50 µM

====

- method.description: Cytotoxicity against MDCK cells after 3 days by fluorescein diacetate-based fluorimetric analysis
- Format: cell-based, Canis lupus familiaris
- assay.setup: dog
# Lookup of reported CC50 at 72 h keyed by entry
metric.name: CC50 at 72 h (µM)

>>> print(df.to_string())
                                    molecule  value_relation_sign  observed_result
 0  COc1cc2c(cc1OC)C1(OC2=O)Oc2cc(C(C)C)ccc2C1=O (centres undefined)                    >              500
 1  O=C1OC2(Oc3c(Cl)ccc(Cl)c3C2=O)c2ccccc21 (centres undefined)                    =               86
 2  Cc1cc2c(c(C)c1C)C(=O)C1(OC(=O)c3ccccc31)O2 (centres undefined)                    >              500
 3  CCc1ccc2c(c1)OC1(OC(=O)c3ccccc31)C2=O (centres undefined)                    =              103
 4  Cc1cc2c(cc1C)C1(OC2=O)Oc2cc(C(C)C)ccc2C1=O (centres undefined)                    >              500
 5  O=C1OC2(Oc3ccc(-c4ccccc4)cc3C2=O)c2ccccc21 (centres undefined)                    =             30.3
 6  CCc1ccc2c(c1)C(=O)C1(OC(=O)c3ccccc31)O2 (centres undefined)                    =              112
 7                     NC12CC3CC(CC(C3)C1)C2                    >              100
 8  O=C1OC2(Oc3cc(Cl)ccc3C2=O)c2ccccc21 (centres undefined)                    >              500
 9  Nc1ccc2c(c1)OC1(OC(=O)c3ccccc31)C2=O (centres undefined)                    =              305
10  O=C1OC2(Oc3ccccc3C2=O)c2ccccc21 (centres undefined)                    >              500
11  Cc1cc(C)c2c(c1)OC1(OC(=O)c3ccccc31)C2=O (centres undefined)                    >              500
12  Cc1ccc2c(c1)C(=O)C1(OC(=O)c3ccccc31)O2 (centres undefined)                    =              293
13  O=C1OC2(Oc3cc(F)ccc3C2=O)c2ccccc21 (centres undefined)                    >              500
14  O=C1OC2(Oc3cc4c(cc3C2=O)CCC4)c2ccccc21 (centres undefined)                    =             80.4
15  COc1ccc2c(c1)OC1(OC(=O)c3ccccc31)C2=O (centres undefined)                    >              500
16  O=C1OC2(Oc3cc4ccccc4cc3C2=O)c2ccccc21 (centres undefined)                    >              500
17  Cc1cc2c(cc1C)C(=O)C1(OC(=O)c3ccccc31)O2 (centres undefined)                    >              500
18  Cc1cccc2c1OC1(OC(=O)c3ccccc31)C2=O (centres undefined)                    >              500
19  CC(C)c1ccc2c(c1)OC1(OC(=O)c3ccccc31)C2=O (centres undefined)                    =              314
20                        NC(=O)c1nc(F)cnc1O                    >              100
21  CCCc1ccc2c(c1)C(=O)C1(OC(=O)c3ccccc31)O2 (centres undefined)                    =              100
22  Cc1ccc2c(c1)OC1(OC(=O)c3ccccc31)C2=O (centres undefined)                    =              376
23  CCOC(=O)c1ccc2c(c1)C(=O)C1(OC(=O)c3ccccc31)O2 (centres undefined)                    >              500

Source: ChEMBL document CHEMBL2331187
